src = patent US20050053993A1

Target: HMVEC (Homo sapiens)
Sequence (P11021 19-654): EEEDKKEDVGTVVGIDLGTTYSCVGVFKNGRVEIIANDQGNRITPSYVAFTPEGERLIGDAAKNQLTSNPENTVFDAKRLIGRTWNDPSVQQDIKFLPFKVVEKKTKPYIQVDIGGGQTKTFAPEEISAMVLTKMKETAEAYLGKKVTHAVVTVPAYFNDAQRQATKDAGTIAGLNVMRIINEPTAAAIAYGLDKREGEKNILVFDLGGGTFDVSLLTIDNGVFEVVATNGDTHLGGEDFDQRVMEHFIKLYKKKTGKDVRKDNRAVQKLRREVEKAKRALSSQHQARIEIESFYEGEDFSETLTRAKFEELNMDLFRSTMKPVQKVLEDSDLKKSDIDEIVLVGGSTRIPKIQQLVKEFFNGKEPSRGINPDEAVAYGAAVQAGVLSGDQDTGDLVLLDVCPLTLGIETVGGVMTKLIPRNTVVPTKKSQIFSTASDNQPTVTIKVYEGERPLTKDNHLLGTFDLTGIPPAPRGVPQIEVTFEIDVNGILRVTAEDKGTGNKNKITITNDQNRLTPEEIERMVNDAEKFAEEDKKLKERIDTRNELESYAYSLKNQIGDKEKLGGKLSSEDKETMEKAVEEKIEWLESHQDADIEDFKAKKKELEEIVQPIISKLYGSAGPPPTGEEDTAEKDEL
Experiment: VEGF-stimulated HMVEC migration (Boyden chamber)
Format: cell-based
Settings: read-out: IC50 values, inhibition of VEGF stimulation HMVEC migration; 3 ng/ml VEGF, 4 hours at 37° C., 48 well Boyden chamber
pIC50: −log10 of the molar value.
TEST_READOUT: pIC50

input: What does the data say about its pIC50? Entry: Ac-MFGNGKGYRGKRATTVTGTP-NH2
output: < 6.00

input: Also, Ac-VLLPDVETPSEED-NH2 [Ac-VLLPDVETPSEED-NH2] please.
output: < 6.00

input: Ac-QDWAAQEPHRHSIFTPETNPRAGLEKNY-NH2 ?
output: < 6.00

###

Target: HMVEC (Homo sapiens)
Test: VEGF-stimulated HMVEC migration (Boyden chamber)
Assay type: cell-based
Conditions: read-out: IC50 values, inhibition of VEGF stimulation HMVEC migration; 3 ng/ml VEGF, 4 hours at 37° C., 48 well Boyden chamber
Peptide text beside a SMILES is read from it.
Listed molecules paired with reported IC50

CC(=O)N[C@@H](CC(=O)O)C(=O)N[C@H](C(=O)N1CCC[C@H]1C(=O)N[C@@H](CCC(N)=O)C(N)=O)C(C)C [Ac-DVPQ-NH2] (Ac-DVPQ-NH2) ... > 1 µM

We next turn to a different molecule, shown below.
input: Fill in the recorded IC50 for this molecule, with HMVEC (Homo sapiens) as test system: CC(=O)N[C@@H](CC(C)C)C(=O)N[C@@H](Cc1ccc(O)cc1)C(=O)N[C@@H](CC(=O)O)C(=O)N[C@@H](Cc1ccc(O)cc1)C(N)=O [Ac-LYDY-NH2] (Ac-LYDY-NH2)
output: > 1 µM
